Values compiled from patent US20240116985A1.

biological target: full-length beta-Catenin (Uniprot ID P35222) (Homo sapiens (Human)) (UniProt P35222); assay: FP competition, full-length beta-catenin, competitor probe 5FAM-TCF4 10-53
Sequence (P35222 2-781 limits assumed): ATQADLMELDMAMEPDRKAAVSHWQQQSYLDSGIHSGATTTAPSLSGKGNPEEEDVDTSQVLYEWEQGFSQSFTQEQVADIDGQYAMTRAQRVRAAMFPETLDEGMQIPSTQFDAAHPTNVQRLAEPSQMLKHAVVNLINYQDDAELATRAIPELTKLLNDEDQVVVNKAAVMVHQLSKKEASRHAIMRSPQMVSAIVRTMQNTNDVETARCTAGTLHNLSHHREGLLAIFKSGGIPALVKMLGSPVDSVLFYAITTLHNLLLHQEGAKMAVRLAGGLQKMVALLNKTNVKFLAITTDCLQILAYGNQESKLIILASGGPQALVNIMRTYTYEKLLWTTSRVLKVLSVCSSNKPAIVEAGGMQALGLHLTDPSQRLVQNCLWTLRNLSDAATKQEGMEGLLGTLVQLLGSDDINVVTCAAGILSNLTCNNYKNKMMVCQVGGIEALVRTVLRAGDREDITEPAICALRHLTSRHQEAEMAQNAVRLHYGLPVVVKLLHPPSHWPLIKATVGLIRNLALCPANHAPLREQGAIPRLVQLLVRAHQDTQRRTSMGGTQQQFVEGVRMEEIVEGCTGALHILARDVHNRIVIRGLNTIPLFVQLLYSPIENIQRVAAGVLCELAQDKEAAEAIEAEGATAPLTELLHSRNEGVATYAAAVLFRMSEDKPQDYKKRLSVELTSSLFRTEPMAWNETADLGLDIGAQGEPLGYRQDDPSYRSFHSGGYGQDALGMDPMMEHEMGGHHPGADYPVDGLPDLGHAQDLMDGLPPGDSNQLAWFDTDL
Starred links: 1 amine or outer side, 2 acyl side, 3 side chain; linkers in the order of their positions; H or OH if unused. Positions of bridges follow the written chain, without caps; N, C: chain ends. Non-standard residues stand in square brackets, D forms with d. Primed or numbered codes have the meaning given here. No end group written: not given here. PyrS2″ = (S)-3-amino-1-((pent-4-en-1-yloxy)carbonyl)pyrrolidine-3-carboxylic acid (stapling residue), C=CCCCOC(=O)N1CC[C@@](N[*:1])(C(=O)[*:2])C1; B5(4) = 2,2-bis(4-pentenyl)glycine = 2-amino-2-(pent-4-en-1-yl)hept-6-enoic acid (stitching residue), C=CCCCC(CCCC=C)(N[*:1])C(=O)[*:2]; Phe(3-COOH) = N[C@@H](Cc1cccc(C(=O)O)c1)C(=O)O; Phe(2-CF3) = N[C@@H](Cc1ccccc1C(F)(F)F)C(=O)O; Phe(2-Cl) = N[C@@H](Cc1ccccc1Cl)C(=O)O; Bta = N[C@@H](Cc1csc2ccccc12)C(=O)O; αAllylPro = C=CC[C@@]1(C(=O)O)CCCN1; tBuAla = CC(C)(C)C[C@H](N)C(=O)O; 2Thi = N[C@@H](Cc1cccs1)C(=O)O; Thr(ol) = C[C@@H](O)[C@H](N)CO
Each entry below lists one item and its recorded IC50 value.

| binder | IC50 [µM] |
| --- | --- |
| [αAllylPro]D[tBuAla][B5(4)]D[Phe(3-COOH)]AAFF[PyrS2″][Phe(2-CF3)][Bta]Q-NH2 (staple 1-4, 4-11) [I-1341] | 0.017 |
| [αAllylPro]D[tBuAla][B5(4)]D[Phe(3-COOH)]AAFF[PyrS2″][Phe(2-Cl)][Bta]Q-NH2 (staple 1-4, 4-11) [I-1338] | 0.01 |
| [αAllylPro]D[tBuAla][B5(4)]D[Phe(3-COOH)]AAFF[PyrS2″][Phe(2-Cl)][Bta]S-NH2 (staple 1-4, 4-11) [I-1339] | 0.033 |
| [αAllylPro]D[tBuAla][B5(4)]D[Phe(3-COOH)]AAFF[PyrS2″][Phe(2-Cl)][Bta][Thr(ol)] (staple 1-4, 4-11) [I-1340] | 0.159 |
| [αAllylPro]D[tBuAla][B5(4)]DDAAFF[PyrS2″][2Thi][Bta]Q-NH2 (staple 1-4, 4-11) [I-1345] | 0.015 |
| Ac-[αAllylPro]D[tBuAla][B5(4)]D[Phe(3-COOH)]AAFF[PyrS2″][Phe(2-CF3)][Bta][Thr(ol)] (staple 1-4, 4-11) [I-1343] | 0.15 |
| [αAllylPro]D[tBuAla][B5(4)]D[Phe(3-COOH)]AAFF[PyrS2″][Phe(2-CF3)][Bta]S-NH2 (staple 1-4, 4-11) [I-1342] | 0.035 |
